Hello, the source for this data is patent US5135932A, in case you need it.

target: UniProt:P18090
Sequence (P18090 whole entry): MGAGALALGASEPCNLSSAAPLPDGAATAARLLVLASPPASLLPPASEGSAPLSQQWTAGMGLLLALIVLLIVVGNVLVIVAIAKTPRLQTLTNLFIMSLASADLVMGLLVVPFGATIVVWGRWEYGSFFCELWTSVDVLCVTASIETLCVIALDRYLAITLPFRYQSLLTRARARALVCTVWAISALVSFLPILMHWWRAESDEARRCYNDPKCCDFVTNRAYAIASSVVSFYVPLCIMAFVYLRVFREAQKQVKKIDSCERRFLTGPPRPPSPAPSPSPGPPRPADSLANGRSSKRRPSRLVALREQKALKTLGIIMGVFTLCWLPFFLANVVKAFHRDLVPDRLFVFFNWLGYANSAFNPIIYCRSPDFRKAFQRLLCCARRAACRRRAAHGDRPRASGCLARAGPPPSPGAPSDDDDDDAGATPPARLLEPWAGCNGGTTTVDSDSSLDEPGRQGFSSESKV
REPORTED PROPERTY: IC50 (nM)

{"COMPOUND": "CC(C)OCCOCc1ccc(OCC(O)CNCCOc2ccc(-c3ccc(=O)[nH]n3)cc2)cc1 (stereo not shown) [Substance G]", "READING": 53}
{"COMPOUND": "O=C1CCC(c2ccc(OCCNCC(O)COc3ccc(CCOCC4CCC4)cc3)cc2)=NN1 (stereo not shown) [Substance E]", "READING": 15}
{"COMPOUND": "Cc1cc(C2=NNC(=O)CC2)ccc1OCCCNCC(O)COc1ccc(CCOCC2CC2)cc1 (stereo not shown) [Substance O]", "READING": 59}
{"COMPOUND": "Cc1cc(-c2ccc(=O)[nH]n2)ccc1OCCNCC(O)COc1ccc(COCCOC(C)C)cc1 (stereo not shown) [Substance Q]", "READING": 2}
